- SYSTEM: PD-L1 protein on the surface of MC38-hPDL1 tumor cells (Homo sapiens)
- Construct: expressed in transfected cells; host or cells: MC38-hPDL1 (mouse colon cancer cells)
- PROTOCOL_DETAILS: Induction of endocytosis of PD-L1 on the surface of tumor cells (flow cytometry)
- Assay type: cell-based
- TEST_CONTEXT: inducing endocytosis of PD-L1, MC38-hPDL1 cells, 16 hours incubation; read-out: MC38 IC50
MEASUREMENT_LABEL: IC50 (pM)

[[record]]
compound = "COc1nc(-c2cccc(-c3cccc(NC(=O)c4nc5c(n4C)CCN(C)C5)c3Cl)c2Cl)ccc1CN1CC2(C1)CN(C(=O)C(F)F)C2"
reading = 800


1 = COc1cc(-c2cccc(-c3cccc(NC(=O)c4nc5c(n4C)CCN(C)C5)c3Cl)c2C)ncc1CNC[C@@H]1CCC(=O)N1
2 = COc1cc(C(=O)Nc2cccc(-c3cccc(NC(=O)c4nc5c(n4C)CCN(C)C5)c3Cl)c2C)ncc1CN1CC(F)(CO)COC1=O (stereo not drawn)
3 = COc1nc(-c2cccc(-c3cccc(NC(=O)c4nc5c(n4C)CCN(C)C5)c3Cl)c2Cl)ccc1CN1CC2(CC(O)C2)C1
4 = COc1nc(-c2cccc(-c3cccc(NC(=O)c4nc5c(n4C)CCN(C)C5)c3Cl)c2Cl)ccc1CN[C@H]1CCOC[C@@H]1O (relative stereo)
Incoming: Please order the records by their reported IC50, lowest number first. Your answer should be the labels, listed in the requested order.
Outgoing: 4, 3, 1, 2

* * *

- PROTOCOL_DETAILS: Pharmacokinetic test of plasma and tumor of tumor-bearing nude mice
- Type: in vivo
- TEST_CONTEXT: female, mouse, tumor/plasma, po; tumor-bearing nude mice, p.o. 30 mg/kg; read-out: Tumor plasma ratio
MEASUREMENT_LABEL: Kp

[[record]]
mol = "COc1nc(-c2cccc(-c3cccc(NC(=O)c4nc5c(n4C)CCN(C)C5)c3Cl)c2Cl)cnc1CN1CC2(C1)CN(C(C)=O)C2"
reading = 4.6


1 = COc1nc(-c2cccc(-c3cccc(NC(=O)c4nc5c(n4C)CCN(C)C5)c3Cl)c2Cl)ncc1CN1CC(CO)C1
2 = COc1nc(-c2cccc(-c3cccc(NC(=O)c4nc5c(n4C)CCN(C)C5)c3Cl)c2Cl)ccc1CN1CC(C(=O)N(C)C)C1
Incoming: Looking only at measured Kp, which entry is lower, 1 or 2 ? # reply format: chosen label
Outgoing: 2

* * *

- SYSTEM: human PD-L1 protein (Homo sapiens)
- Construct: purchased Acro Biosystems PD1-H5229
- Sequence (Q9NZQ7 19-238 limits assumed): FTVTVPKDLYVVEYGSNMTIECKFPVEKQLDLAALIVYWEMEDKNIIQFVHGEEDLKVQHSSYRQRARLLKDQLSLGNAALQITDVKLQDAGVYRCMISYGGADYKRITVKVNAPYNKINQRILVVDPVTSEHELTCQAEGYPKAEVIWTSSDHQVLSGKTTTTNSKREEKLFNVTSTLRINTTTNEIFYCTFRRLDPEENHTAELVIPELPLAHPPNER
- PROTOCOL_DETAILS: Thermal shift: melting temperature of PD-L1 protein
- Type: binding
- TEST_CONTEXT: compound 10 μM, PD-L1 protein 2 μM, Tm minus DMSO vehicle control; read-out: ΔTm (° C.)
MEASUREMENT_LABEL: ΔTm at 10 µM (°C)

Examples with their reported ΔTm at 10 µM follow.
[[record]]
compound = "COc1nc(-c2cccc(-c3cccc(NC(=O)c4nc5c(n4C)CCN(C)C5)c3Cl)c2Cl)ccc1CN[C@@H]1CCCC[C@@H]1O [Embodiment 176]"
system = "human PD-L1 protein (Homo sapiens)"
reading = 24.3

[[record]]
compound = "COc1cc(-c2cccc(-c3cccc(NC(=O)c4nc5c(n4C)CCN(C)C5)c3Cl)c2Cl)ccc1CNCCO [Embodiment 157]"
system = "human PD-L1 protein (Homo sapiens)"
reading = 11.2

[[record]]
compound = "COc1nc(-c2cccc(-c3cccc(NC(=O)c4nc5c(n4C)CCN(C)C5)c3Cl)c2Cl)ccc1CN1CC2CC(C1)N2C(C)=O [Embodiment 206]"
system = "human PD-L1 protein (Homo sapiens)"
reading = 11.6


a = COc1nc(-c2cccc(-c3cccc(NC(=O)c4nc5c(n4C)CCN(C)C5)c3Cl)c2Cl)ccc1CNC1COC1 [Embodiment 114]
b = CCn1c(C(=O)Nc2cccc(-c3cccc(-c4ccc(CN5CC6(COC6)C5)c(OC)n4)c3Cl)c2Cl)nc2c1CCN(C)C2 [Embodiment 237]
Incoming: Among a and b , which shows a numerically higher ΔTm at 10 µM result? Write the label of whichever entry you select.
Outgoing: a

* * *

- PROTOCOL_DETAILS: Plasma protein binding rate (equilibrium dialysis)
- Assay type: in vitro ADME
- TEST_CONTEXT: mouse plasma, equilibrium dialysis 37° C. 5 hours
MEASUREMENT_LABEL: fraction unbound at 5 h, 5 μM

[[record]]
molecule = "COc1nc(-c2cccc(-c3cccc(NC(=O)c4nc5c(n4C)CCN(C)C5)c3Cl)c2Cl)ccc1CN[C@H]1CCOC[C@@H]1O (relative stereo)"
reading = 0.0052

[[record]]
molecule = "COc1nc(-c2cccc(-c3cccc(NC(=O)c4nc5c(n4C)CCN(C)C5)c3Cl)c2Cl)ccc1CN1CC2(COC2)C1"
reading = 0.0057

[[record]]
molecule = "CCC(=O)N1CC2(CN(Cc3ccc(-c4cccc(-c5cccc(NC(=O)c6nc7c(n6C)CCN(C)C7)c5Cl)c4Cl)nc3OC)C2)C1"
reading = 0.0052


P = COc1nc(-c2cccc(-c3cccc(NC(=O)c4nc5c(n4C)CCN(C)C5)c3Cl)c2Cl)ccc1CNC1COC1
Q = COc1nc(-c2cccc(-c3cccc(NC(=O)c4nc5c(n4C)CCN(C)C5)c3Cl)c2Cl)cnc1CN1CC2(C1)CN(C(C)=O)C2
Incoming: I'm curious, which of these has a smaller fraction unbound at 5 h, 5 μM number: P or Q ? Write down the label of the entry you select.
Outgoing: P

* * *

- SYSTEM: PD-L1 protein on the surface of MC38-hPDL1 tumor cells (Homo sapiens, UniProt Q9NZQ7)
- Construct: expressed in transfected cells; host or cells: MC38-hPDL1 (mouse colon cancer cells)
- Sequence (Q9NZQ7 19-290): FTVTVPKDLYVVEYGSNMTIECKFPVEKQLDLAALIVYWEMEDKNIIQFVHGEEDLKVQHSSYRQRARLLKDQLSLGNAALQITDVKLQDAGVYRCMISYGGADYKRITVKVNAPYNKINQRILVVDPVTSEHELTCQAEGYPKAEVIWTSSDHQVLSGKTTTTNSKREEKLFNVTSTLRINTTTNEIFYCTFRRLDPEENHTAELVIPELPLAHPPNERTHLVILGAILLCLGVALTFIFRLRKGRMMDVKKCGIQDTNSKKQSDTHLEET
- PROTOCOL_DETAILS: Induction of endocytosis of PD-L1 on the surface of tumor cells (flow cytometry)
- Format: cell-based
- TEST_CONTEXT: MC38-hPDL1 cells, 16 hours incubation; read-out: MC38 maximum endocytosis rate
MEASUREMENT_LABEL: Emax (%)

[[record]]
molecule = "COc1nc(-c2cccc(-c3cccc(NC(=O)c4nc5c(n4C)CCN(C)C5)c3Cl)c2Cl)ccc1CN1CC2(CN(C=O)C2)C1 [Embodiment 193]"
measurement_label = "Emax"
value_unit = "%"
reading = 96

[[record]]
molecule = "COc1nc(-c2cccc(-c3cccc(NC(=O)c4nc5c(n4C)CCN(C)C5)c3Cl)c2Cl)ccc1CN1CC(OC(C)=O)C1 [Embodiment 122]"
measurement_label = "Emax"
value_unit = "%"
reading = 97

[[record]]
molecule = "COc1nc(-c2cccc(-c3cccc(NC(=O)c4nc5c(n4C)CCN(C)C5)c3Cl)c2Cl)ccc1CN1CC(C(=O)O)C1 [Embodiment 135]"
measurement_label = "Emax"
value_unit = "%"
reading = 98

[[record]]
molecule = "Cc1c(NC(=O)c2cc(C3CC3)c(CO)cn2)cccc1-c1cccc(NC(=O)c2nc3c(n2C)CCN(C)C3)c1Cl [Embodiment 51]"
measurement_label = "Emax"
value_unit = "%"
reading = 91

[[record]]
molecule = "CCC(=O)N1CCN(Cc2ccc(-c3cccc(-c4cccc(NC(=O)c5nc6c(n5C)CCN(C)C6)c4Cl)c3Cl)nc2OC)CC1 [Embodiment 201]"
measurement_label = "Emax"
value_unit = "%"
reading = 94

[[record]]
molecule = "COc1nc(-c2cccc(-c3cccc(NC(=O)c4nc5c(n4C)CCN(C)C5)c3Cl)c2Cl)ccc1CN1CC2(C1)CN(C(=O)CC#N)C2 [Embodiment 191]"
measurement_label = "Emax"
value_unit = "%"
reading = 97

[[record]]
molecule = "COc1nc(-c2cccc(-c3cccc(NC(=O)c4nc5c(n4C)CCN(C)C5)c3Cl)c2Cl)ccc1CN1CCN(C(=O)CC#N)CC1 [Embodiment 198]"
measurement_label = "Emax"
value_unit = "%"
reading = 94

[[record]]
molecule = "COc1cc(C(=O)Nc2cccc(-c3cccc(NC(=O)c4nc5c(n4C)CCN(C)C5)c3Cl)c2C)ncc1CNC1COC1 [Embodiment 36]"
measurement_label = "Emax"
value_unit = "%"
reading = 94

[[record]]
molecule = "COc1nc(-c2cccc(-c3cccc(NC(=O)c4nc5c(n4C)CCN(C)C5)c3Cl)c2C)ccc1CNC1COC1 [Embodiment 112]"
measurement_label = "Emax"
value_unit = "%"
reading = 87

[[record]]
molecule = "COc1cc(C(=O)Nc2cccc(-c3cccc(NC(=O)c4nc5c(n4C)CCN(C)C5)c3Cl)c2C)ncc1CN1CC(F)(CO)COC1=O (stereo not shown) [Embodiment 22]"
measurement_label = "Emax"
value_unit = "%"
reading = 92

[[record]]
molecule = "COc1nc(-c2cccc(-c3cccc(NC(=O)c4nc5c(n4C)CCN(C)C5)c3Cl)c2Cl)ccc1CN1CC2CC(C1)N2C(C)=O [Embodiment 206]"
measurement_label = "Emax"
value_unit = "%"
reading = 90

[[record]]
molecule = "COc1nc(-c2cccc(-c3cccc(NC(=O)c4nc5c(n4C4CC4)CCN(C)C5)c3Cl)c2Cl)ccc1CN1CC2(CC(NC(C)=O)C2)C1 [Embodiment 246]"
measurement_label = "Emax"
value_unit = "%"
reading = 94

[[record]]
molecule = "COc1nc(-c2cccc(-c3cccc(NC(=O)c4nc5c(n4C)CCN(C)C5)c3Cl)c2Cl)ccc1CN1CC(O)C1 [Embodiment 129]"
measurement_label = "Emax"
value_unit = "%"
reading = 95

